# Read-out: Interleukin 6 Receptor (IL6R), IL6R (gene 3570)
# assay-info: LTEA_HepaRG_IL6R: Life Technologies and Expression Analysis (LTEA) Assay for Interleukin 6 Receptor (IL6R) using HepaRG (AID 2283510)
# run-parameters: mRNA level, 48 h; actives raise or lower the signal
Active and inactive are the calls of the source. The calls were made as follows: active = hit-call score of the fitted dose curve at least 0.9, where 1 is the maximum; inactive = score below 0.9.
Outcome codes: active, inactive

{"molecule": "CCCC(CCC)C(=O)O", "assigned-label": "inactive"}
{"molecule": "CC(C)C(=O)Nc1ccc([N+](=O)[O-])c(C(F)(F)F)c1", "assigned-label": "inactive"}
{"molecule": "C[C@@H](Oc1ccc(CNC(=O)c2cccnc2Oc2ccc3c(c2)OCO3)c(F)c1)C(=O)O", "assigned-label": "inactive"}
{"molecule": "CC(C)CC(C)O (stereo not drawn)", "assigned-label": "inactive"}
{"molecule": "CC1(C)C(=O)N(Cl)C(=O)N1Cl", "assigned-label": "inactive"}
{"molecule": "CCCCCCOC(=O)CC(CC(=O)OCCCCCC)(OC(=O)CCC)C(=O)OCCCCCC", "assigned-label": "inactive"}
{"molecule": "c1ccc2c(c1)-c1cccc3c1c-2cc1ccccc13", "assigned-label": "active"}
{"molecule": "NC(=O)NN=Cc1ccc([N+](=O)[O-])o1", "assigned-label": "inactive"}
{"molecule": "O=C(O)[C@H](O)[C@@H](O)C(=O)O", "assigned-label": "inactive"}
{"molecule": "CC(=O)c1ccccc1", "assigned-label": "inactive"}
{"molecule": "NNC(=O)c1ccncc1", "assigned-label": "inactive"}
{"molecule": "Cc1nccn1-c1ccc(Sc2cccc(C3(C(N)=O)CCOCC3)c2)cc1", "assigned-label": "active"}
{"molecule": "COS(C)(=O)=O", "assigned-label": "inactive"}

Origin of measurements: PubChem BioAssay (EPA / NIEHS)
